Measured values drawn from patent US8759535B2 for this set.

# System: HMOX1
# method_notes: HMOX1 Protein Assay (immunostaining of HO-1 in NHLF cells, GE InCell 1000)
# Format: cell-based
# applied_conditions: Homo sapiens, fold change above DMSO treated cells, 5 μM compound, 16 h
Structures can show the parent of a compound that is named as a salt.
Answer 0.0 if fold induction at 5 µM is under 20, and 1.0 if it is 20 or more.

{"columns": ["compound", "class"],
 "data": [
  ["Cn1c(Nc2nc3ccc(OC(F)(F)F)cc3s2)nc2cc(C(=O)NCCOCCC#N)ccc21 [Example 265]", 1.0],
  ["Cc1ccc2nc(Nc3nc4cc(C(=O)NCC(=O)N(C)C)ccc4n3C)sc2c1 [Example 363]", 0.0],
  ["Cn1c(Nc2nc3ccc(Cl)cc3s2)nc2cc(C(=O)NCCOCCC#N)ccc21 [Example 266]", 1.0],
  ["CCn1c(Nc2nc3ccc(OC(F)(F)F)cc3s2)nc2cc(C(=O)NCC(=O)N3CCN(C)CC3)ccc21 [Example 190]", 1.0],
  ["CCn1c(Nc2nc3ccc(C(F)(F)F)cc3s2)nc2cc(C(=O)NCCSC)ccc21 [Example 185]", 0.0],
  ["CCNC(=O)c1ccc2c(c1)nc(Nc1nc3ccc(C(F)(F)F)cc3s1)n2CC [Example 181]", 1.0],
  ["CNC1CCN(C(=O)CNC(=O)c2ccc3c(c2)nc(Nc2nc4ccc(OC(F)(F)F)cc4s2)n3C)CC1 [Example 453, hydrochloride]", 1.0],
  ["Cn1c(Nc2nc3ccc(OC(F)(F)F)cc3s2)nc2cc(C(=O)NCCS(C)(=O)=O)ccc21 [Example 102]", 1.0]
]}
